# reported growth; entries follow
# Test system: SK-MEL-5 melanoma
# testSummary: NCI-60 one-dose screen, 48 h (100 = growth as untreated, 0 = no growth, -100 = all killed)
# assayContext: 10 µM unless noted
This is part of a sample that, as a whole, favours compounds with a hit. Of some 83,000 tested, about 20% had one in any assay. Calls of active or inactive are those of the source. How the source made its calls: active means growth percent below 10; inactive means the rest.

Completed entries (count: 2):
[[record]]
compound = "CCOc1nc(-c2ccccc2)cc2c(O)c(C(=O)N/N=C/c3ccc(O)cc3O)[nH]c(=O)c12"
recordedresult = "21.9% (inactive)"

[[record]]
compound = "Cc1ccc2c(c1)C(=O)/C(=C/c1cccc(OCC(=O)c3ccc(Cl)cc3)c1)CS2"
recordedresult = "85.1% (inactive)"


Value wanted: growth (SK-MEL-5 melanoma) of entry N#CCCN=Nc1c(O)[nH]c2ccc([N+](=O)[O-])cc12 99.2% (inactive)

Value wanted: growth (SK-MEL-5 melanoma) of entry O=C(Cc1ccccc1Nc1c(Cl)cccc1Cl)NN1C(=O)/C(=C/c2ccc(Br)cc2)SC1=S 98.6% (inactive)

Value wanted: growth (SK-MEL-5 melanoma) of entry C#CCOc1ccc2ncnc(Nc3cccc(CNC(=O)CCl)c3)c2c1 14.5% [8.25 µM] (inactive)

Value wanted: growth (SK-MEL-5 melanoma) of entry COc1ccc(C(=O)c2sc3nc4c(c(-c5cccnc5)c3c2N)CCCC4)cc1OC 59.6% (inactive)

Value wanted: growth (SK-MEL-5 melanoma) of entry NC(=O)c1cc(Br)ccc1NC(=O)/C=C/c1ccccc1 12.2% (inactive)

###

# Test system: OVCAR-4 ovarian
# testSummary: NCI-60 one-dose screen, 48 h
# assayContext: 10 µM unless noted
This is part of a sample that, as a whole, favours compounds with a hit. Of some 83,000 tested, about 20% had one in any assay. Activity calls are given as the source filed them. The calls were made as follows: active = growth percent below 10; inactive = the rest.
Select the matching outcome among Y for active, N for inactive

[[record]]
compound = "CCCc1cc(=O)n2c(C(=O)Nc3cccc(C(=O)OCC)c3)c(C(=O)Nc3ccc(F)cc3)sc2n1"
classlabel = "Y"

[[record]]
compound = "CCCCCCCCCCCCC[N+](C)(C)Cc1ccccc1"
classlabel = "Y"

[[record]]
compound = "CC1=C(O)C(=O)C(C(C#N)(C#N)C(C#N)C#N)C1 (stereo not given)"
classlabel = "N"

[[record]]
compound = "Cc1ccc(C2Oc3ccccc3C3CC(c4cccs4)=NN32)cc1 (stereo not given)"
classlabel = "N"

[[record]]
compound = "CC(C)(O)c1cn(CCCCN2C(=O)C(=O)c3ccccc32)nn1"
classlabel = "N"


Fill in: this test's call for c1csc(C2=NN3C(C2)c2ccccc2OC3c2ccncc2)c1 (stereo not given) is ___ N

Fill in: this test's call for N#Cc1nnn(-c2ccc(S(N)(=O)=O)cc2)c1NC(=O)CCl is ___ N

Fill in: this test's call for COc1ccc(-c2nc3ccc(-c4nc5ccc(N6CCN(c7ccccc7)CC6)cc5[nH]4)cc3[nH]2)cc1OC is ___ Y

Fill in: this test's call for O=C(Cn1cccc(Nc2ccccc2)c1=O)Nc1ccccc1 is ___ N

Fill in: this test's call for CCOc1cc2ncc(C#N)c(Nc3ccc(OCc4cccc(F)c4)c(Cl)c3)c2cc1NC(=O)CCCCC1CCSS1 (stereo not given) is ___ N

The measured values listed here are drawn from PubChem BioAssay (NCI).
